The reported numbers originate from the supplement of paper PMC9170038.

For each of the sequences below, state its apparent KD of MS2 coat protein.
System: MS2 coat protein
Assay Summary: apparent KD of MS2 coat protein; designed switch direction (-1 OFF switch, 1 ON switch): -1; higher = weaker reporter binding
Reported Conditions: input ligand: FMN 200 uM
Express your answer in nM, writing the number without its unit.

Given the sequence UAUGUCGACAAGGAUAUUUGCGCAAACGACCACAAAGAAGGUGUCACAUGAGGAUCACCCAUGUGGUGUGGGCC [Eternabot (L1) Solution 83] (Eterna round: R97, puzzle: Exclusion 6) , what is its reported apparent KD of MS2 coat protein?
202

Now this one: GUGGGUUACAUGAGGAUCACCCAUGUAUAGUGGGAAAAGAUAUAGGAUAUAAUAUAAAAAUUAUAUUAGAAGGAUAGAGACUAG [AK ExNG3-1.1] (Eterna round: R96, puzzle: Exclusion NG 3)
727

Also ACAUGAGGAUCACCCAUGUCCGGCUGGUCUGUCUCGGCUGUCGAGGAUAUAGCACGGUAUCCGCGCUAGAAGGCGGGAGCCGGC [Aenatbe mod 89] (Eterna round: R96, puzzle: Exclusion NG 3) ?
99.5
